Test system: zinc-dependent metalloprotease (purified recombinant enzyme)
Type: biochemical
Details: 1 mM, as shown in Table 2

molecule	effect on enzyme activity (in words)
O=S(=O)([O-])[O-].[Ni+2] [NiSO4]	enhanced
O=C(O)CN(CCOCCOCCN(CC(=O)O)CC(=O)O)CC(=O)O [EGTA]	inhibited
[Ca+2].[Cl-].[Cl-] [CaCl2]	enhanced
[Cl-].[Cl-].[Mg+2] [MgCl2]	inhibited
c1cnc2c(c1)ccc1cccnc12 [1,10-phenanthroline]	inhibited
[Cl-].[Cl-].[Zn+2] [ZnCl2]	inhibited
